Target sequence: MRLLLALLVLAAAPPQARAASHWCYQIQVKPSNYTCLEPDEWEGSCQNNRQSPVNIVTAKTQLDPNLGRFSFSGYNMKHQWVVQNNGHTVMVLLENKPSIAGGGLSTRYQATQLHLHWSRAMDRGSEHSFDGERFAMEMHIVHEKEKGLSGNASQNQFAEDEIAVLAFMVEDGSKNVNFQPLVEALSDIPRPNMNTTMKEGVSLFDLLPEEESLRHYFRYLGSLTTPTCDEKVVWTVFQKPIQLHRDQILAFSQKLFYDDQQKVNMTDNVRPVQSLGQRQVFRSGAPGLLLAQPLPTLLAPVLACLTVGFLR
pKi: −log10 of the molar value.
Answer Not satisfied if pKi is under 7, and Satisfied if it is 7 or more.

These solved cases illustrate the format of a correct answer.
1. Nc1c(Cl)cc(S(N)(=O)=O)cc1I = Not satisfied
2. Nc1ccc(S(=O)(=O)Nc2nnc(S(N)(=O)=O)s2)cc1I = Satisfied

Shift focus to the following entry.
Determine whether this compound has pKi no lower than 7: `CC(=O)Nc1ccc(S(N)(=O)=O)cc1Cl`
Not satisfied
